Target: Early activation antigen CD69 (Homo sapiens)
Sequence (Q07108 whole entry): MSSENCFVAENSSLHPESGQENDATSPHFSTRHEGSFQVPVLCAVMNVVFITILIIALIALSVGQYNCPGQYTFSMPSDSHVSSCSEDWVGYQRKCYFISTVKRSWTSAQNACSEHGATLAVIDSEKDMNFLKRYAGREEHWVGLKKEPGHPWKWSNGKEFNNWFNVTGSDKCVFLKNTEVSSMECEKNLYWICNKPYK
ASSAY METRIC: pIC50
Would you please state pIC50, meaning minus log10 of the concentration in mol/L, as a bare number?

Query: pIC50; subject: CC(=O)N[C@@H]1[C@@H](O)[C@H](O)[C@@H](CO)O[C@H]1O 3.90
